Listed here are binders together with their documented Normalized Binding Signal, 1500 nM.
Target: T1, recombinant cyno Tie2 extracellular domain (cynomolgus monkey, UniProt Q02763 23-748 (human entry))
T1 construct: also called Recombinant cyno Tie2 ECD; cy Tie2
T1 chain: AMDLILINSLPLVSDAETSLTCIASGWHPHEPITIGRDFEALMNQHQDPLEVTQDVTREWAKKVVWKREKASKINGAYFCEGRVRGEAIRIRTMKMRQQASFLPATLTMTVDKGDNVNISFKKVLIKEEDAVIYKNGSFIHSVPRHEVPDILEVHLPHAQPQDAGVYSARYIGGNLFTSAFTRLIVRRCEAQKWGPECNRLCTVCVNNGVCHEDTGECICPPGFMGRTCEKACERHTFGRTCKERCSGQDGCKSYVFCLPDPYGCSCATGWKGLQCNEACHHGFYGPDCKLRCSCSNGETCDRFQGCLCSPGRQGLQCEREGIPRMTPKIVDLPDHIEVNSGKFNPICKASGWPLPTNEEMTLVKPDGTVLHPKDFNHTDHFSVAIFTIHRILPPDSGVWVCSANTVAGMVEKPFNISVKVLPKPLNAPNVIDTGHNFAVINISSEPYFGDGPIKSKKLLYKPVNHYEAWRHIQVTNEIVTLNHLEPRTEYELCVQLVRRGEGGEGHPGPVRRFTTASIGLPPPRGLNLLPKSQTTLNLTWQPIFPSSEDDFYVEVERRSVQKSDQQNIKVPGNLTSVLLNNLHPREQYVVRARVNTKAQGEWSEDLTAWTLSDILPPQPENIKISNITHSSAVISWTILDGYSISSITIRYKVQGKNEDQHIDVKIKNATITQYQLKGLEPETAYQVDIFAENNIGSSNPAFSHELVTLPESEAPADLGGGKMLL
Assay: SPR, IgG captured, 37C
Kindly provide the number alone.

binder	Normalized Binding Signal, 1500 nM
Tie2.1.M100cA (antibody, IgG1, name in Kabat numbering, V domains shown, hIgG1) VH: EVQLVESGGGLVQPGGSLRLSCAASGFTFSNTDISWVRQAPGKGLEWVGRISPSDGNTYYADSVKGRFTISADTSKNTAYLQMNSLRAEDTAVYYCARRTRWASWAADYWGQGTLVTVSS VL: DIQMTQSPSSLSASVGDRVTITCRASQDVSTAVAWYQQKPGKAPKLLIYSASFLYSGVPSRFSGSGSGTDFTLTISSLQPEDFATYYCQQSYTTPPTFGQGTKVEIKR	0.13
Tie2.1.M100cV (antibody, IgG1, name in Kabat numbering, V domains shown, hIgG1) VH: EVQLVESGGGLVQPGGSLRLSCAASGFTFSNTDISWVRQAPGKGLEWVGRISPSDGNTYYADSVKGRFTISADTSKNTAYLQMNSLRAEDTAVYYCARRTRWASWAVDYWGQGTLVTVSS VL: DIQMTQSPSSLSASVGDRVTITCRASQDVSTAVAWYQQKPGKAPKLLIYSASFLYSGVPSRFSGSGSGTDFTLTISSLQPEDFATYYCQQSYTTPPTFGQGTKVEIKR	0.15

Okay, now this binder:
In: So what's the measured Normalized Binding Signal, 1500 nM for this one? Tie2.1.M100cH (antibody, IgG1, name in Kabat numbering, V domains shown, hIgG1) VH: EVQLVESGGGLVQPGGSLRLSCAASGFTFSNTDISWVRQAPGKGLEWVGRISPSDGNTYYADSVKGRFTISADTSKNTAYLQMNSLRAEDTAVYYCARRTRWASWAHDYWGQGTLVTVSS VL: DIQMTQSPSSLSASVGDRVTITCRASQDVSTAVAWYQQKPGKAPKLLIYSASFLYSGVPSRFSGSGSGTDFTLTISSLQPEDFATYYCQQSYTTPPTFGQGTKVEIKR
Out: 0.36
